Target: T1, cynomolgus CD73 on the cell surface (293T/17-cynoCD73 cells) (cynomolgus (Macaca fascicularis), UniProt P21589 27-547 (human entry))
T1 construct: it is an ecto-domain with a His tag
T1 chain: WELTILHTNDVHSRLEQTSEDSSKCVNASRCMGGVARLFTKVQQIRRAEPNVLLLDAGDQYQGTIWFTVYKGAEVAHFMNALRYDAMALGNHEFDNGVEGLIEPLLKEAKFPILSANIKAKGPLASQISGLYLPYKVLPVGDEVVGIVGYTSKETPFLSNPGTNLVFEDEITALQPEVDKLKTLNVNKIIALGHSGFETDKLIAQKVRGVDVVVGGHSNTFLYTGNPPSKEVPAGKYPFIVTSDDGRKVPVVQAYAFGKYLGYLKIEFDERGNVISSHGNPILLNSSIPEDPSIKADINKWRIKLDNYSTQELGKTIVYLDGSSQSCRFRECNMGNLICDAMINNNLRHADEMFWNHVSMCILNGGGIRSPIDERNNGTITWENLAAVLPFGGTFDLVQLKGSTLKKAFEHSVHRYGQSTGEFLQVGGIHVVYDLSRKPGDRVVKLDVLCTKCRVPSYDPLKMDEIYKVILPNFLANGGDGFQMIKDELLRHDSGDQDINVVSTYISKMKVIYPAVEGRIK
Test: flow cytometry on 293T/17-Cyno CD73 cells, curve fit

binder	Bottom
JB94H3L3 (antibody, human IgG1, kappa, V domains shown, Humanized antibody of the 94 clone, human IgG1 / kappa) VH: QVQLQQSGAEVKKPGASVKLSCKASGYTFTSYWMHWVRQRPGQGLEWIGYINPSSGYTKSNQKFKDRATLTADTSTSTAYMELSSLRSEDTAVYYCGRWLLSAWFAYWGQGTLVTVSS VL: DIQMTQSPSSLSASVGDRVTITCKASQDINTYLSWFQQKPGKSPKSLIYRSNILVDGVPSRFSGSGSGQDYTLTISSLQPEDFAIYYCLQYDDFPYTFGQGTKLEIKR	1.4 fluorescence

Origin of the recorded values: patent US20220064322A1
